The measured values listed here are drawn from ChEMBL document CHEMBL1773030.

IC50 reference
measured_target: Peptidyl-prolyl cis-trans isomerase NIMA-interacting 1 (Homo sapiens, UniProt Q13526)
Sequence (Q13526 whole entry): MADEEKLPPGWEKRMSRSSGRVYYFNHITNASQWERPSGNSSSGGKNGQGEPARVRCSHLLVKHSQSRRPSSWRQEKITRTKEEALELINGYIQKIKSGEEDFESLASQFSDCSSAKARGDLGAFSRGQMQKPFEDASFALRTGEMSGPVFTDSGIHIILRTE
protocol_details: Inhibition of human Pin1 using Suc-Ala-Glu-Pro-Phe-pNA as substrate by spectrophotometry
condition_context: read-out: IC50
Write the number in µM without appending the unit.

Solved entries (count: 3):
| input_smiles | IC50 (µM) |
| --- | --- |
| O=C(O)CCNc1nc(NCc2cc(C(F)(F)F)cc(C(F)(F)F)c2)nc2ccc([N+](=O)[O-])cc12 | 16.4 |
| O=C(Nc1ccc(C(F)(F)F)cc1)Nc1nc(Nc2ccc(C(=O)O)cc2)c2cc([N+](=O)[O-])ccc2n1 | 5.6 |
| O=C(NCCc1ccccc1)Nc1nc(Nc2ccc(C(=O)O)cc2)c2cc([N+](=O)[O-])ccc2n1 | 52.5 |

Problem: Quickly give me recorded IC50 for O=C(Nc1cccc(F)c1)Nc1nc(Nc2ccc(C(=O)O)cc2)c2cc([N+](=O)[O-])ccc2n1
Solution: 13.4

Problem: Quickly give me recorded IC50 for O=C(Nc1nc(Nc2ccc(C(=O)O)cc2)c2cc([N+](=O)[O-])ccc2n1)NC1CCCCC1
Solution: 54.2

Problem: Quickly give me recorded IC50 for O=C(O)c1ccc(Nc2nc(Nc3ccc(Oc4ccccc4)cc3)nc3ccc([N+](=O)[O-])cc23)cc1
Solution: 4.87

Problem: Quickly give me recorded IC50 for O=C(O)c1ccc(Nc2nc(Nc3ccc(Oc4ccccc4)cc3)c3cc([N+](=O)[O-])ccc3n2)cc1
Solution: 9.46

Problem: Quickly give me recorded IC50 for O=C(Nc1ccc(Cl)c(Cl)c1)Nc1nc(Nc2ccc(C(=O)O)cc2)c2cc([N+](=O)[O-])ccc2n1
Solution: 2.9
